EXPERIMENTAL SYSTEM: T1, cynomolgus monkey CD19 on peripheral blood B cells (cynomolgus monkey (Macaca fascicularis), UniProt A0A2K5W8L9 20-557)
T1 construct: whole, on cells; also called cynomolgus monkey B cells
T1 sequence: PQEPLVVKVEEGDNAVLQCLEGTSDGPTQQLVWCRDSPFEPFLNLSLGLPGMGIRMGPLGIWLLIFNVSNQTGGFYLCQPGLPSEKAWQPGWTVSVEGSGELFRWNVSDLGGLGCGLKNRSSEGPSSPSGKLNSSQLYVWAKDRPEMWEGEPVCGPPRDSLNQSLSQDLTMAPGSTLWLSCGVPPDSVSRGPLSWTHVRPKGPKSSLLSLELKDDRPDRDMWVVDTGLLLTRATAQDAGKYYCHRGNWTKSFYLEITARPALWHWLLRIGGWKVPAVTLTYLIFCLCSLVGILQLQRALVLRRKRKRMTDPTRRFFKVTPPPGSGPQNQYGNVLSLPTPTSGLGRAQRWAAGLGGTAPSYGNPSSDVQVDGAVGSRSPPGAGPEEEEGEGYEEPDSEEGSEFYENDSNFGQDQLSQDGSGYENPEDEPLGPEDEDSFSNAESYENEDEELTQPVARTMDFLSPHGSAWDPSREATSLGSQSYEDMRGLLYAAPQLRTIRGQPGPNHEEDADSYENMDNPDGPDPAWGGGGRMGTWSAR
TEST NAME: FACS, cynomolgus PBMC, CD20+ B cells
Field 'label' (enum: t / f). Set to t when Proportion of chimeric antibody positive cells to B cells (%) at 1 nM is strictly under 20%; else f.

{"BINDER": "F3.64.4 (antibody, human IgG1, V domains shown, human-murine chimeric antibody, human IgG1) VH: EVQLQQSGPELVKPGASVKISCKASGYTFTDYHINWVKQSHGKSPEWIGDINPNNGGTTYNQKFKDKATLTVDKSSSTAFMELRSLTSEDSAVYYCARFITTVVAWYFDVWGTGTTVTVSS VL: DIQMTQSPASLSVSVGETVTITCRASENIYSNLAWYQQKQGKSPQLLVYAATNLADGVPSRFSGSGSGTQYSLKINSLQSEDFGNYYCQRFWDTPRTFGGGTKLEIK", "DISCRETE LABEL": "t"}
{"BINDER": "F3.113.16 (antibody, human IgG1, V domains shown, human-murine chimeric antibody, human IgG1) VH: QVQLQQPGAELVKPGASVKLSCKASGYTFTNYWMQWVKQRPGQGLEWIGEIDPSDSYINYNQKFKGKATLTADTSSSTAYMQLSSLTYEDSAVYYCARPVTVPWYFDVWGTGTTVTVSS VL: EIVLTQSPTTMAASPGEKITITCSATSSISSNYLHWYQQKPGFSPKLLIYRTSNLASGVPARFSGSGSGTSYSLTIGTMEAEDVATYYCQQGSAIPRIFTFGSGTKLEIK", "DISCRETE LABEL": "t"}
{"BINDER": "F4.4.6 (antibody, human IgG1, V domains shown, human-murine chimeric antibody, human IgG1) VH: QVQLQQSGAELARPGASVKLSCKASGYTFTSYWMQWVKQRPGQGLEWIGAIYPGDGDSRYTQKFKGKATLTADKSSSTAYMQLSSLASEDSAVYYCARSTTTVLGNNFEYWGQGTTLTVSS VL: QIVLTQSPAIMSALPGEKVTMTCSASSSVSSMHWYQQKSGTSPKRWIYDTSKLASGVPARFSGSGSGTSYSLTISSMEAEDAATYYCQQWSSNPWTFGGGTKLEIK", "DISCRETE LABEL": "t"}
{"BINDER": "F3.83.9 (antibody, human IgG1, V domains shown, human-murine chimeric antibody, human IgG1) VH: DVQLQESGPGLVKPSQSLSLTCSVTGYSITSGYYWNWIRQFPGNKLEWMGYISYDGGNNYNPSLKNRISITRDTSKNQFFLKLNSVTTEDTATYFCAREDYSNWYFDVWGTGTTVTVSS VL: DIVLTQSPASLAVSLGQRATISCRASQSVSKSSYSYMHWYQQKPGQSPKLLIKYASILKSGVPARFSGSGSGTDFTLNIHPVEEEDTATYYCQHSWEIPWTFGGGTKLEIK", "DISCRETE LABEL": "f"}
{"BINDER": "F3.126.15 (antibody, human IgG1, V domains shown, human-murine chimeric antibody, human IgG1) VH: QVQLQQPGAELVMPGASVKLSCKASGYTFTSYWMHWVKQRPGQGLEWIGEIDPSDSYTTYNQNFKGKATLTVDISTSTAYIQLSNLTSEDSAVYYCARLTGNYIHYWGQGTTLTVSS VL: DIVMTQSHKFMSTSVGDRVSITCKASQDVSPAVAWYQQRPGQCPKLLIFSSSYRSTGVPDRFTGSGSGTDFTFTISSVQAEDLAVYYCQQHYSLPLTFGAGTKLELK", "DISCRETE LABEL": "t"}

As a next step, examine the binder that follows.
In the record for F5.2.9 (antibody, human IgG1, V domains shown, human-murine chimeric antibody, human IgG1) VH: QVTLKESGPGILQPSQTLSLTCSFSGFSLSTFGLGVGWVRQPSGKGLEWLAHIWWDDDKYYNPALKSRVTVSKETSKNQVFFKIANVDTADSATYYCARLSRGLRRDVVYAMDHWGQGTSVTVSS VL: DIQMTQTTSSLSASLGDRVTISCRASQDISNYLNWYQQKPDGSVKLLISYVSRLQSGVPSRFRGSGSGTDYSLTISNLDQEDIATYFCQQGIAFPYTFGGGTKLDIK , is Proportion of chimeric antibody positive cells to B cells (%) at 1 nM less than 20%?
f
